experiment: viability loss in pontine glioma line – cell-based, SU-DIPG-XIII, MIPE5.0, CellTiter-Glo, qHTS, dose response (AID 1347064); conditions: CellTiter-Glo ATP luminescence;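 for AC50: cells exposed to compound for 48 hours before the viability read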
Inconclusive results are not listed. The source made the active and inactive calls. No cut-off is given here; in the data, nearly all actives have AC50 up to about 23 µM.

- smiles data: "O=C1c2cccc(O)c2C(=O)c2c(O)cc(CO)cc21"
  AC50: "inactive"
- smiles data: "O=C(Nc1ccc2[nH]nc(-c3ccncc3)c2c1)[C@@H]1CCN(CC(=O)N2CCN(c3ccc(-c4ncccn4)cc3)CC2)C1"
  AC50: "1480 nM (active)"
- smiles data: "Cc1cn2cc(C(=O)N(C)CCO)cc(N[C@@H]3CCOc4cccc(C)c43)c2n1"
  AC50: "inactive"
- smiles data: "Cc1cncc2cccc(S(=O)(=O)N3CCCN(C(=O)CN)C[C@@H]3C)c12"
  AC50: "inactive"
- smiles data: "O=C(NOCCO)c1ccc2cncn2c1Nc1ccc(I)cc1F"
  AC50: "148 nM (active)"
- smiles data: "COc1cccc([C@@H](C)NCCCc2ccccc2Cl)c1"
  AC50: "inactive"
- smiles data: "COc1cc(OCc2cccc(-c3ccccc3)c2C)cc(OC)c1CN1CCCC[C@H]1C(=O)O"
  AC50: "inactive"
- smiles data: "Cc1ccc(NC(=O)[C@H]2CCCN(C(=O)c3c(C)cccc3F)[C@H]2c2ccc(NC3CCCC3)cc2)cc1C(F)(F)F"
  AC50: "inactive"
- smiles data: "[2H]C([2H])([2H])C(O)([C@@H](C)/C=C/[C@@H](C)[C@H]1CC[C@H]2/C(=C/C=C3C[C@@H](O)C[C@H](O)C3)CCC[C@]12C)C([2H])([2H])[2H]"
  AC50: "inactive"

====

Reported inhibition values for a set of compounds
test: growth inhibition, single agents and combos, ICB984, cell-based, cisplatin or BGB combos, synergistic combos for chromothripsis tumors (AID 1671451); details: ICB984 medulloblastoma cells, drug combinations, BGB IC40 combo, at 0.005 µM, stronger effect = higher value;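 note: cells exposed for 96 hours before readout; 0% = vehicle DMSO and 100% = killing by high DMSO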

- compound: "Cc1ccc2nc(NCCN)c3ncc(C)n3c2c1"
  inhibition, %: -98.8
- compound: "NC1CCC(N[C@@H]2C[C@H]2c2ccccc2)CC1 (stereo partly specified)"
  inhibition, %: -40
- compound: "Nc1ccccc1NC(=O)c1ccc(CNc2nccc(-c3cccnc3)n2)cc1"
  inhibition, %: 19.9
- compound: "O=C(/C=C/c1cccc(S(=O)(=O)Nc2ccccc2)c1)NO"
  inhibition, %: 36.1
- compound: "O=c1cc(N2CCOCC2)oc2c(-c3cccc4c3sc3ccccc34)cccc12"
  inhibition, %: -19.1
- compound: "CN(C)c1ccc(C(=O)NCCCCCCC(=O)NO)cc1"
  inhibition, %: 7.19
- compound: "O=c1[nH]c([C@@H]2CCCN2)nc2c1oc1ccc(Cl)cc12"
  inhibition, %: -26.9
- compound: "O=C(COc1cccc2c(=O)[nH]ccc12)c1ccccc1"
  inhibition, %: -17.7
- compound: "O=c1cc(N2CCOCC2)oc2c1ccc1ccccc12"
  inhibition, %: -0.874
- compound: "COc1cc(C=O)c([N+](=O)[O-])cc1OC"
  inhibition, %: -48.2
- compound: "C=C1[C@H](CO)[C@@H](O)C[C@@H]1n1cnc2c(=O)[nH]c(N)nc21"
  inhibition, %: -1.32
